target: T1, recombinant human Tau monomer, 2N4R isoform (amino acids 2-441) (human, UniProt P10636-8 2-441); experiment: SPR screen, hIgG captured, Tau monomer analyte
T1 construct: range 2-441; N-terminal His-tag removed with TEV protease; also called monomeric Tau
T1 sequence (P10636 other isoform, or with tags, fused parts or gaps limits assumed): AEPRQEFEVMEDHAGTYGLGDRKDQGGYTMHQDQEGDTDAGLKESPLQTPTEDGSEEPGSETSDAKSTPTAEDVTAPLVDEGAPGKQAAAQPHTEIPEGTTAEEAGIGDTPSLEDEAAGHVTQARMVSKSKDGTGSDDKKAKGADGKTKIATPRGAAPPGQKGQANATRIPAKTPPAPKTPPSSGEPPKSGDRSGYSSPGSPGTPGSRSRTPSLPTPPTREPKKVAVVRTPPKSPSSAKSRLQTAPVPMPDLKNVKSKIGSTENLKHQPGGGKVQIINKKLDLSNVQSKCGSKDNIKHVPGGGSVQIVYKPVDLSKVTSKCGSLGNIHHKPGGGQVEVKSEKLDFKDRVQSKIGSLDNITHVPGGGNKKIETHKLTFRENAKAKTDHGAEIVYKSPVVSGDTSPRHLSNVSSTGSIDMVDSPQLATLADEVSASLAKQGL
OBSERVED PROPERTY: Kd
Number plus unit, in that order.

hu125B11 HC3 + hu113F5-F7 LC2 (antibody, V domains shown) VH: EVQLVESGGGLVQPGGSLRLSCAASRFIFSNYWMNWVRQAPGKGLEWVAQIRLKSDNYATHYAESVKGRFTISRDDSKNTLYLQMNSLRAEDTAVYYCTGGTTYWGQGTLVTVSS VL: DIQMTQSPSSLSASVGDRVTITCKASQNVGTAVAWYQQKPGKAPKLLIYSASRRFSGVPSRFSGSGSGTDFTLTISSLQPEDFATYFCQQFSTYPYTFGQGTKVEIK :: 55 nM

Using the record for hu125B11 HC4 + hu113F5-F7 LC1 (antibody, V domains shown) VH: EVQLVESGGGLVQPGGSLRLSCAASRFIFSNYWMNWVRQAPGKGLEWVAQIRLKSDNYATHYAESVKGRFTISRDNSKNTLYLQMNSLRAEDTAVYYCTGGTTYWGQGTLVTVSS VL: DIQMTQSPSSLSASVGDRVTITCKASQNVGTAVAWYQQKPGKSPKLLIYSASRRFSGVPSRFSGSGSGTDFTLTISSLQPEDFATYFCQQFSTYPYTFGQGTKVEIK , report its Kd. 44 nM
